Measured Platelet agglutination EC50 mean value (from 2 independent expts.) by item
target: purified human von Willebrand factor (vWF) (human, UniProt P04275 764-2813); assay: cell-based or functional assay
result-type: Platelet agglutination EC50 mean value (from 2 independent expts.) (nM)

- humanized NMC-4 variant H9L9 IgG4 (antibody, V domains shown) VH: QVQLQESGPGLVKPSETLSLTCTVSGFSLTDYGVDWIRQPPGKGLEWIGMIWGDGSTDYNSALKSRVTISVDTSKNQFSLKLSSVTAADTAVYYCARDPADYGNYDYALDYWGQGTLVTVSS VL: DIQMTQSPSSLSASVGDRVTITCSASQDINKYLNWYQQKPGKAPKLLIYYTSSLHSGVPSRFSGSGSGTDFTLTISSLQPEDFATYYCQQYEKLPWTFGQGTKVEIK: 1.4
- humanized NMC-4 variant H14-L10, IgG4 (antibody, V domains shown) VH: QVQLQESGPGLVKPSETLSLTCTVSGGSISDYGWDWIRQPPGKGLEWIGMIWGDGSTDYNPSLKSRVTISVDTSKNQFSLKLSSVTAADTAVYYCARDPADYGNYDYALDYWGQGTLVTVSS VL: DIQMTQSPSSLSASVGDRVTITCQASQDISNYLNWYQQKPGKAPKLLIYYTSSLHSGVPSRFSGSGSGTDFTLTISSLQPEDFATYYCQQYEKLPWTFGQGTKVEIK: 2.15
- humanized NMC-4 variant H14, L10, IgG1 (antibody, V domains shown) VH: QVQLQESGPGLVKPSETLSLTCTVSGGSISDYGWDWIRQPPGKGLEWIGMIWGDGSTDYNPSLKSRVTISVDTSKNQFSLKLSSVTAADTAVYYCARDPADYGNYDYALDYWGQGTLVTVSS VL: DIQMTQSPSSLSASVGDRVTITCQASQDISNYLNWYQQKPGKAPKLLIYYTSSLHSGVPSRFSGSGSGTDFTLTISSLQPEDFATYYCQQYEKLPWTFGQGTKVEIK: 1.2
